Entry source: paper PMC12416549

# System under test: T1, TNFR1 (Homo sapiens, UniProt P19438)
# T1 chain: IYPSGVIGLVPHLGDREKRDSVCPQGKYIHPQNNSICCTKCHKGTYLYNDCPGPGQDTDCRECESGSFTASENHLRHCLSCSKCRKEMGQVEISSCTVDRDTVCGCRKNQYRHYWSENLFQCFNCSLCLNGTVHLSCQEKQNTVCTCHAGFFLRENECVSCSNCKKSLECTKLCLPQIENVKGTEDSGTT
# Measurement notes: yeast display SC50
Parameter measured: apparent Kd (screen) (nM)

Answered cases to consult:
A23Y (designed binder) MTLQELLREEALRRAEAEAFRYYLELLAEKFPEQKEYLLDLAEEIESQIRSLSGVDVEDVRKFLDKEWAWVKELLAEHPAELAEVEAARAARLAELRAEVEAKVAA: 1.4
R92G (designed binder) MTLQELLREEALRRAEAEAFRYALELLAEKFPEQKEYLLDLAEEIESQIRSLSGVDVEDVRKFLDKEWAWVKELLAEHPAELAEVEAARAAGLAELRAEVEAKVAA: 0.593
L3F (designed binder) MTFQELLREEALRRAEAEAFRYALELLAEKFPEQKEYLLDLAEEIESQIRSLSGVDVEDVRKFLDKEWAWVKELLAEHPAELAEVEAARAARLAELRAEVEAKVAA: 2.25

(a) A106M (designed binder) MTLQELLREEALRRAEAEAFRYALELLAEKFPEQKEYLLDLAEEIESQIRSLSGVDVEDVRKFLDKEWAWVKELLAEHPAELAEVEAARAARLAELRAEVEAKVAM
(b) Q48E (designed binder) MTLQELLREEALRRAEAEAFRYALELLAEKFPEQKEYLLDLAEEIESEIRSLSGVDVEDVRKFLDKEWAWVKELLAEHPAELAEVEAARAARLAELRAEVEAKVAA
Task: Which one would you say has the larger apparent Kd (screen) value: a , or b ? Reply briefly: the label of your chosen item.
Output: a
(a: 0.718 nM, b: 0.142 nM)
